assay: Biliary clearance test in cats; type: in vivo; details: i.v., 0.10 g I/kg; 28% I, Mgl salt
Property name: Biliary clearance in cat, i.v.

- Compound: "CNC(=O)c1c(I)c(C(=O)NC(C)C(=O)Nc2c(I)cc(I)c(C(=O)O)c2I)c(I)c(N(C)C(C)=O)c1I (stereo not drawn)"
  Result: "++++"
- Compound: "CNC(=O)c1c(I)c(C(=O)NCCCCCC(=O)Nc2c(I)cc(I)c(C(=O)O)c2I)c(I)c(N(C)C(C)=O)c1I"
  Result: "++++"
- Compound: "CNC(=O)c1c(I)c(NC(=O)CNC(=O)c2c(I)c(C(=O)NCCO)c(I)c(N(C)C(C)=O)c2I)c(I)c(C(=O)O)c1I"
  Result: "±"

----------
experiment: Biliary clearance test in cats; format: in vivo; parameters: scale not given here; conditions: i.v., 0.10 g I/kg; 28% I, Mgl salt
Property name: Biliary clearance in cat, i.v.

Below are worked cases with known answers.
- Molecule: "CNC(=O)c1c(I)c(NC(=O)CCCNC(=O)c2c(I)cc(I)c(N(C)C(C)=O)c2I)c(I)c(C(=O)O)c1I"
  Biliary clearance in cat, i.v.: "+++"
- Molecule: "CC(=O)Nc1c(I)c(C(=O)NCC(=O)Nc2c(I)c(C(=O)O)c(I)c(C(=O)NCCO)c2I)c(I)c(N(C)C(C)=O)c1I"
  Biliary clearance in cat, i.v.: 0
- Molecule: "CNC(=O)c1c(I)c(C(=O)NCCCC(=O)N(C)c2c(I)c(C(=O)O)c(I)c(C(=O)NC)c2I)c(I)c(N(C)C(C)=O)c1I"
  Biliary clearance in cat, i.v.: "++"
- Molecule: "CNC(=O)c1c(I)c(NC(=O)CCCNC(=O)c2c(I)c(C(=O)NC)c(I)c(N(C)C(C)=O)c2I)c(I)c(C(=O)O)c1I"
  Biliary clearance in cat, i.v.: 0
- Molecule: "CNC(=O)c1c(I)c(NC(=O)CN(CC(=O)Nc2c(I)c(C(=O)NCCO)c(I)c(C(=O)NCCO)c2I)CC(=O)Nc2c(I)c(C(=O)NCCO)c(I)c(C(=O)NCCO)c2I)c(I)c(C(=O)O)c1I"
  Biliary clearance in cat, i.v.: 0

## Input Value lookup for Biliary clearance in cat, i.v.; key = CNC(=O)c1c(I)c(NC(=O)CCCCC(=O)Nc2c(I)c(C(=O)O)c(I)c(C(=O)NC)c2I)c(I)c(C(=O)O)c1I [c, reference compound]
## Output 0

## Input Would you kindly repeat that for CNC(=O)c1c(I)c(NC(=O)CCCNC(=O)c2c(I)c(C(=O)NCCO)c(I)c(N(C)C(C)=O)c2I)c(I)c(C(=O)O)c1I ?
## Output 0

## Input Moving on to CNC(=O)c1c(I)c(C(=O)NCC(=O)Nc2c(I)cc(I)c(C(=O)O)c2I)c(I)c(N(C)C(C)=O)c1I
## Output ++++

----------
Experiment: Osmolality determination (FISKE osmometer)
Assay type: physicochemical
Settings: solutions containing 28% iodine; methylglucamine salts; extrapolation from successive dilutions
Description: Osmolality is determined by extrapolation of the values obtained on successive dilutions of solutions containing 28% or 38% iodine. Osmolality readings are made with a FISKE Model 230/D/330 D osmometer. This apparatus indicates this measurement as milliosmoles per kg of solution. Its operation is based on the principles of cryoscopy. The determinations were made with solutions containing 28% iodine.
Property name: Osmolality

Consider the following illustrative entries.
- Compound: "CNC(=O)c1c(I)c(NC(=O)CCCCC(=O)Nc2c(I)c(C(=O)O)c(I)c(C(=O)NC)c2I)c(I)c(C(=O)O)c1I [c, reference compound]"
  Result: "950 mosm/kg"
- Compound: "CC(=O)Nc1c(I)c(C(=O)O)c(I)c(C(=O)NCCO)c1I [b, reference compound]"
  Result: "1390 mosm/kg"
- Compound: "CNC(=O)c1c(I)c(C(=O)NCC(=O)Nc2c(I)cc(I)c(C(=O)O)c2I)c(I)c(N(C)C(C)=O)c1I [Compound 19]"
  Result: "500 mosm/kg"
- Compound: "CNC(=O)c1c(I)c(NC(=O)CN(CC(=O)Nc2c(I)c(C(=O)NCCO)c(I)c(C(=O)NCCO)c2I)CC(=O)Nc2c(I)c(C(=O)NCCO)c(I)c(C(=O)NCCO)c2I)c(I)c(C(=O)O)c1I [Compound 31]"
  Result: "350 mosm/kg"
- Compound: "CNC(=O)c1c(I)c(C(=O)NC(C)C(=O)Nc2c(I)cc(I)c(C(=O)O)c2I)c(I)c(N(C)C(C)=O)c1I (stereo not drawn) [Compound 23]"
  Result: "535 mosm/kg"
- Compound: "CNC(=O)c1c(I)c(NC(=O)CNC(=O)c2c(I)cc(I)c(N(C)C(C)=O)c2I)c(I)c(C(=O)O)c1I [Compound 18]"
  Result: "390 mosm/kg"
- Compound: "CNC(=O)c1c(I)c(C(=O)NCC(=O)Nc2c(I)c(C(=O)O)c(I)c(C(=O)NCCO)c2I)c(I)c(N(C)C(C)=O)c1I [Compound 1]"
  Result: "510 mosm/kg"
- Compound: "CNC(=O)c1c(I)c(NC(=O)CNC(=O)c2c(I)c(C(=O)NC)c(I)c(N(C)C(C)=O)c2I)c(I)c(C(=O)O)c1I [Compound 9]"
  Result: "440 mosm/kg"

Now let's try a different one.
## Input So what does the record say about Osmolality for CNC(=O)c1c(I)c(NC(=O)CCCNC(=O)c2c(I)c(C(=O)NCCO)c(I)c(N(C)C(C)=O)c2I)c(I)c(C(=O)O)c1I [Compound 7] ?
## Output 525 mosm/kg

----------
Property: Acute toxicity in mice, i.v.; scope: individual compounds
test system: mice; assay: Acute toxicity determination, intravenous toxicity in mice; type: in vivo, mice (Swiss origin, IOPS mice of OFI strain); settings: 24 hours, 28% I, Mgl salt
// units = grams I/kg; emit number, no label

- Compound: "CNC(=O)c1c(I)c(NC(=O)CNC(=O)c2c(I)c(NC(=O)C(O)C(O)C(O)C(O)CO)c(I)c(C(=O)NC)c2I)c(I)c(C(=O)O)c1I (stereo not drawn) [Compound 35]"
  Unit info: "grams I/kg"
  Numeric result: 8

Attention now turns to another entry.
## Input Value lookup for Acute toxicity in mice, i.v.; key = CNC(=O)c1c(I)c(NC(=O)C(O)C(O)C(O)C(O)CO)c(I)c(C(=O)NCC(=O)Nc2c(I)c(C(=O)O)c(I)c(C(=O)NCCO)c2I)c1I (stereo not drawn) [Compound 36]
## Output 8
